Would you kindly list Corn plant response rating for each of these compounds?
# System: corn
# assay.info: Test B pre/postemergence corn
# Format: in vivo, Zea mays
# settings: Preemergence, Rate 250 g/ha; scale of 0 to 10 where 0 is no effect and 10 is complete control
Keep the answer to the number alone.

System corn. Read-out Corn plant response rating. Item `Cc1c(-n2c(=O)on(C(=O)N(c3ccc(F)cc3)C(C)C)c2=O)ccc2ccccc12` . Report value.
0

System corn. Read-out Corn plant response rating. Item CC(C)N(C(=O)n1oc(=O)n(C(C)CCl)c1=O)c1ccc(F)cc1 (stereo not drawn) . Report value.
2

System corn. Read-out Corn plant response rating. Item `CC(C)=CCn1c(=O)on(C(=O)N(c2ccc(F)cc2)C(C)C)c1=O` . Report value.
0

System corn. Read-out Corn plant response rating. Item `CC(C)N(C(=O)n1oc(=O)n(C2CCCC2)c1=O)c1ccc(F)cc1F` . Report value.
0

System corn. Read-out Corn plant response rating. Item `CC(C)N(C(=O)n1oc(=O)n(C2CCCCCC2)c1=O)c1ccc(Cl)cc1` . Report value.
0

System corn. Read-out Corn plant response rating. Item `CC(C)N(C(=O)n1oc(=O)n(CC2(C)COC2)c1=O)c1ccc(F)cc1` . Report value.
6

System corn. Read-out Corn plant response rating. Item `CC(C)N(C(=O)n1oc(=O)n(CC(=O)OC(C)(C)C)c1=O)c1ccc(F)cc1` . Report value.
0

System corn. Read-out Corn plant response rating. Item `CCCCn1c(=O)on(C(=O)N(c2ccc(F)cc2)C(C)C)c1=O` . Report value.
0

System corn. Read-out Corn plant response rating. Item `CC(C)N(C(=O)n1oc(=O)n(CCC(F)=C(F)F)c1=O)c1ccc(F)cc1` . Report value.
0

====

Would you kindly list Cocklebur plant response rating for each of these molecules?
# Test system: cocklebur
# assay.info: Test B pre/postemergence cocklebur
# Assay type: in vivo, Xanthium strumarium
# settings: Preemergence, Rate 62 g/ha; scale 0 to 10 (0 no effect, 10 complete control)
Keep the answer to the number alone.

For the molecule CCC(C)n1c(=O)on(C(=O)N(c2ccc(F)cc2)C(C)C)c1=O (stereo not drawn) [Compound 613] , give its measured Cocklebur plant response rating value.
0

For the molecule Cc1ccccc1Cn1c(=O)on(C(=O)N(c2ccc(F)cc2)C(C)C)c1=O [Compound 88] , give its measured Cocklebur plant response rating value.
0

For the molecule CCc1nc(C)c(C(C)n2c(=O)on(C(=O)N(c3ccc(Cl)cc3)C(C)C)c2=O)s1 (stereo not drawn) [Compound 590] , give its measured Cocklebur plant response rating value.
0

====

Would you kindly list Plant response rating, Giant foxtail for each of these molecules?
# Test system: giant foxtail
# assay.info: Test B pre/postemergence giant foxtail
# Assay type: in vivo, Setaria faberii
# settings: Postemergence, Rate 500 g/ha; scale of 0 to 10 where 0 is no effect and 10 is complete control
Keep the answer to the number alone.

For the molecule `COC(=O)CCCn1c(=O)on(C(=O)N(c2ccccc2)C(C)C)c1=O` , give its measured Plant response rating, Giant foxtail value.
0

For the molecule CC(C)N(C(=O)n1oc(=O)n(CC2CCCCO2)c1=O)c1ccc(F)cc1 (stereo not drawn) , give its measured Plant response rating, Giant foxtail value.
9

For the molecule `CC(C)N(C(=O)n1oc(=O)n(CC2CC2)c1=O)c1ccccc1` , give its measured Plant response rating, Giant foxtail value.
9

For the molecule CCC(C)n1c(=O)on(C(=O)N(c2ccc(F)cc2)C(C)C)c1=O (stereo not drawn) , give its measured Plant response rating, Giant foxtail value.
9

For the molecule `CCOCn1c(=O)on(C(=O)N(c2ccccc2)C(C)C)c1=O` , give its measured Plant response rating, Giant foxtail value.
9

For the molecule `CC(Cl)=CCn1c(=O)on(C(=O)N(c2ccccc2)C(C)C)c1=O` , give its measured Plant response rating, Giant foxtail value.
9
